System: BxPC-3
assay comment: Antitumor activity: cell proliferation inhibition (ATPlite)
Type: cell-based
condition description: BxPC-3, 1000 cells/well, 3 days culture
So I've got a bunch of compounds here, and I need their IC50 values.
Report only the number, with the unit nM understood.

Note to self: IC50 recorded for `Cl.Nc1ccn([C@@H]2S[C@H](CO)[C@@H](O)[C@@H]2F)c(=O)n1` was 41

Note to self: IC50 recorded for `CS(=O)(=O)O.Nc1ccn([C@@H]2S[C@H](CO)[C@@H](O)[C@@H]2F)c(=O)n1` was 45

---

assay comment: Solubility test in water
condition description: thermodynamic from solid
measured metric: solubility at 24 h (µg/mL)
Report only the number, with the unit µg/mL understood.

Note to self: solubility at 24 h recorded for Nc1ccn([C@@H]2S[C@H](CO)[C@@H](O)[C@@H]2F)c(=O)n1 [Comparative compound, reference compound] was 2000

---

Tested on: BxPC-3
assay comment: Antitumor activity: cell proliferation inhibition (ATPlite)
Format: cell-based
condition description: Homo sapiens, 72 h, BxPC-3, 1000 cells/well, 3 days culture
measured metric: IC50

Note to self: IC50 recorded for Nc1ccn([C@@H]2S[C@H](CO)[C@@H](O)[C@@H]2F)c(=O)n1 [Comparative compound, reference compound] was 45 nM

// provenance: patent US9896471B2
